- target.of.assay: human Granzyme B (hGzmB) (Homo sapiens)
- Construct: purchased Froelich Lab, Northshore University Health Systems Research Institute, Evanston, Ill., USA
- Sequence (P10144 21-247): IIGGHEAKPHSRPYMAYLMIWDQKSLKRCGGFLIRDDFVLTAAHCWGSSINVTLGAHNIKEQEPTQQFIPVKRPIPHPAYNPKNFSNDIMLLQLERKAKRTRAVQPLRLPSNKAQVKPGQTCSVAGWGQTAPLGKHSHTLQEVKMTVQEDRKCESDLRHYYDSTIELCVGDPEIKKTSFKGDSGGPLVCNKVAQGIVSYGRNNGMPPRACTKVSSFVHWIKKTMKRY
- test.name: Human Granzyme B enzymatic inhibition assay (fluorogenic, kinetic)
- Assay type: biochemical
- measurement.context: activity codes, Table 7; read-out: IC50 Activity Range
pIC50: −log10 of the molar value.
Listed here are compounds together with their documented pIC50.

CC[C@H](C)[C@H](NC(=O)OC(C)(C)C)C(=O)NCC(=O)N1c2ccccc2C[C@H]1C(=O)NCc1nn[nH]n1 5.00 to 6.00
CC[C@H](C)[C@H](NC(=O)CCCCC(=O)O)C(=O)NCC(=O)N1c2ccccc2C[C@H]1C(=O)NCc1nn[nH]n1 > 7.00
CC[C@H](C)[C@H](NC(=O)CCC(=O)OCCOC(=O)C(C)(C)C)C(=O)NCC(=O)N1c2ccccc2C[C@H]1C(=O)NCc1nn[nH]n1 6.00 to 7.00
CC[C@H](C)[C@H](NC(=O)Cc1ccccc1)C(=O)N[C@@H](CC(=O)O)C(=O)N1c2ccccc2C[C@H]1C(=O)NCc1nn[nH]n1 5.00 to 6.00
CO[C@H](C)[C@H](NC(=O)Cc1ccccc1)C(=O)NCC(=O)N1c2ccccc2C[C@H]1C(=O)NCc1nn[nH]n1 5.00 to 6.00

Q: Suppose we examine the compound `O=C(Cc1ccccc1)N[C@H](C(=O)NCC(=O)N1c2ccccc2C[C@H]1C(=O)NCc1nn[nH]n1)C1CCCCC1` ; what pIC50 value has been reported?
A: 5.00 to 6.00

* * *

- test.name: Kinetic solubility determination in PBS
- Format: physicochemical
- measurement.context: phosphate buffered saline (PBS 1×), 21 °C, pH 7.4, aqueous buffer, kinetic from dmso stock, PBS 1X pH 7.4, 2.0% DMSO, 24 hour incubation at ambient temperature, read-out: Solubility in aqueous PBS Buffer (1X, pH 7.4), ug/mL
recorded.metric: solubility at 24 h (µg/mL)

smiles	solubility at 24 h [µg/mL]
CC[C@H](C)[C@H](NC(=O)CC(C)(C)CC(=O)O)C(=O)NCC(=O)N1c2ccccc2C[C@H]1C(=O)NCc1nn[nH]n1	447
O=C(Cc1ccccc1)N[C@H](C(=O)NCC(=O)N1c2ccccc2C[C@H]1C(=O)NCc1nn[nH]n1)C1CCCC1	323

* * *

Listed here are compounds together with their documented Solubility in aqueous PBS Buffer (1X, pH 7.4), uM.
- test.name: Kinetic solubility determination in PBS
- Format: physicochemical
- measurement.context: PBS 1X pH 7.4, 2.0% DMSO, 24 hour incubation at ambient temperature

Observe how each entry below is paired with its result.
compound	result
CC[C@H](C)[C@H](NC(=O)Cc1csc2ccccc12)C(=O)N[C@H]1CCc2cccc3c2N(C1=O)[C@H](C(=O)NCc1c[nH]nn1)C3 [Willoughby 20, reference compound]	4.2-4.9 uM
CC[C@H](C)[C@H](NC(=O)C1CCCCC1C(=O)O)C(=O)NCC(=O)N1c2ccccc2C[C@H]1C(=O)NCc1nn[nH]n1 (single isomer, unassigned) [Example A20-2]	641 uM
CC[C@H](C)[C@H](NC(=O)C1CC=CCC1C(=O)O)C(=O)NCC(=O)N1c2ccccc2C[C@H]1C(=O)NCc1nn[nH]n1 (single isomer, unassigned)	>750 uM
CC[C@H](C)[C@H](NC(=O)C(CCC(=O)O)c1ccccc1)C(=O)NCC(=O)N1c2ccccc2C[C@H]1C(=O)NCc1nn[nH]n1 (single isomer, unassigned)	>750 uM
CC[C@H](C)[C@H](NC(=O)C1CC1C(=O)O)C(=O)NCC(=O)N1c2ccccc2C[C@H]1C(=O)NCc1nn[nH]n1 (single isomer, unassigned)	685 uM

Q: Suppose we examine the compound CC[C@H](C)[C@H](NC(=O)CC(C)CC(=O)O)C(=O)NCC(=O)N1c2ccccc2C[C@H]1C(=O)NCc1nn[nH]n1 (single isomer, unassigned) ; what Solubility in aqueous PBS Buffer (1X, pH 7.4), uM value has been reported?
A: >750 uM

Q: // repeat for CC[C@H](C)[C@H](NC(=O)C(C)CC(=O)O)C(=O)NCC(=O)N1c2ccccc2C[C@H]1C(=O)NCc1nn[nH]n1 (single isomer, unassigned) and report
A: >750 uM

Value source: patent US10329324B2
